- procedure summary: Tanguay_ZF_120hpf_PE_legacy: (Legacy) Oregon State University Tanguay Lab 120 Hour Post-fertilization zebrafish Assay for Pericardial Edema (AID 2283640)
Results filed as inconclusive are left out. Calls of active or inactive are those of the source. How the source made its calls: active means hit-call score of the fitted dose curve at least 0.9, where 1 is the maximum; inconclusive means response in the unintended direction; inactive means score below 0.9.
Outcomes: 1 (active), -1 (inactive)

>>> df
      smiles_record  category_label
0      OCCN(CCO)CCO              -1
1       CN(C)C(=S)S               1
2   Cc1cc(C)cc(C)c1              -1
3       N#Cc1cccnc1              -1
4  Clc1cccc(Cl)c1Cl              -1

----------
- Read-out: Interleukin-8 (IL8), CXCL8 (gene 3576)
- procedure summary: BSK_hDFCGF_IL8: BioMAP Diversity Plus: hDFCGF Assay for Interleukin-8 (IL8) Biomarker Activity (AID 2283058)
- experimental setup: primary human foreskin fibroblasts; actives raise or lower the signal
Active and inactive are the calls of the source. Rule for the calls: active = hit-call score of the fitted dose curve at least 0.9, where 1 is the maximum; inactive = score below 0.9.
Classes used: Y for active, N for inactive

>>> df
                                    molecule  category_label
 0                O=[N+]([O-])c1cccc2ccccc12               N
 1  CCOC(=O)C(SP(=S)(OC)OC)c1ccccc1 (stereo unspecified)               N
 2                               O=C(CCl)NCO               N
 3                     O=C1C=CC(=O)c2ccccc21               N
 4       CCCCOC(=O)COC(=O)c1ccccc1C(=O)OCCCC               N
 5  C[C@]12CC[C@@H](O)C[C@@H]1CC[C@@H]1[C@@H]2CC[C@]2(C)C(=O)CC[C@@H]12               N
 6                       CCOP(=O)(OCC)SCCSCC               N
 7                            Cc1cc(Cl)ccc1N               N
 8  O=C(O)C1(c2ccc3c(c2)OC[C@H](Cc2ccc(-c4ccccc4)cc2)[C@H]3O)CCCC1               Y
 9     Cc1ccccc1OP(=O)(Oc1ccccc1C)Oc1ccccc1C               N
10          CCOP(=S)(OCC)SCS(=O)(=O)C(C)(C)C               N

----------
- procedure summary: ATG_RORE_CIS: Attagene CIS-FACTORIAL HepG2 Assay for human RAR-related Orphan Receptor Element (RORE) (AID 2282959)
- experimental setup: HepG2 Attagene cis-factorial RORE reporter, mRNA; actives raise or lower the signal
Active and inactive are the calls of the source. The calls were made as follows: active = hit-call score of the fitted dose curve at least 0.9, where 1 is the maximum; inactive = score below 0.9.
value kind: outcome

>>> df
                                    compound     value
 0                                   N#CCC#N  inactive
 1  Brc1c(Br)c(Br)c(Oc2c(Br)c(Br)c(Br)c(Br)c2Br)c(Br)c1Br  inactive
 2                          Nc1nc(N)nc(Cl)n1  inactive
 3                       CCOP(=O)(OCC)SCCSCC  inactive
 4                            Cc1ccc(CCl)cc1  inactive
 5                         CCOC(=O)Cc1ccccc1  inactive
 6                            CCN(N=O)C(N)=O  inactive
 7                     Cl[C@H]1OCCO[C@@H]1Cl  inactive
 8  COC(F)(C(F)(F)C(F)(F)F)C(F)(C(F)(F)F)C(F)(F)F (stereo not given)  inactive
 9                      CC(=O)CN(CC(C)=O)N=O  inactive
10                       O=C(CBr)c1ccc(O)cc1  inactive
11                      Nc1ccc(-c2ccccc2)cc1  inactive
12              C=C(C)C(=O)OCCCCOC(=O)C(=C)C  inactive
13  OC(Cc1ccccc1Cl)(Cn1[nH]cnc1=S)C1(Cl)CC1 (stereo not given)  inactive
14                                CCCCCCCCBr  inactive

----------
- target system: Bile acid receptor (Homo sapiens)
- procedure summary: ATG_IR1_CIS: Attagene CIS-FACTORIAL HepG2 Assay for human Nuclear Receptor Subfamily 1 Group H Member 4 (NR1H4), IR1 submotif (AID 2282946)
- experimental setup: IR1 reporter transcription, actives raise or lower the signal
Active and inactive are the calls of the source. The calls were made as follows: active = hit-call score of the fitted dose curve at least 0.9, where 1 is the maximum; inactive = score below 0.9.
value kind: AC50

>>> print(df.to_string())
                                    compound               value
 0                         NC(=O)c1ccc(N)nc1            inactive
 1                                 NC(=O)CCl            inactive
 2  C[C@H]1C(=O)O[C@@H]2CCN3CC=C(COC(=O)[C@](C)(O)[C@]1(C)O)[C@H]23            inactive
 3                   CC1(C)COP(Oc2ccccc2)OC1            inactive
 4  C=CC(=O)[O][Sn]([CH2]CCC)([CH2]CCC)[CH2]CCC  0.0956 µM (active)
 5    CCCCC(CC)COC(=O)Cl (centres undefined)            inactive
 6                         O=C(CCl)Nc1ccccc1    54.4 µM (active)
 7  O=C(NC(=O)c1c(F)cccc1F)Nc1cc(Cl)c(Oc2ncc(C(F)(F)F)cc2Cl)c(Cl)c1            inactive
 8          CCOP(=S)(OCC)SCS(=O)(=O)C(C)(C)C    34.8 µM (active)
 9  COc1nn(C(=O)NS(=O)(=O)c2ccccc2OC(F)(F)F)c(=O)n1C            inactive
10  COC(=O)c1cc(Oc2ccc(Cl)cc2Cl)ccc1[N+](=O)[O-]            inactive
11                              CCCCCCCCCCBr            inactive
12                              O=NN1CCCCCC1            inactive
13                              N#Cc1ccccc1N            inactive
14                       O=C(CBr)c1ccc(O)cc1            inactive
15                                CCCCCCCCBr            inactive
16    O=[N+]([O-])c1ccc(Cl)c([N+](=O)[O-])c1            inactive
17           O=[N+]([O-])c1ccc(Nc2ccccc2)cc1            inactive
18           CC1CC(=O)O1 (centres undefined)            inactive
19  CC(C)[C@H](C(=O)OC(C#N)c1cccc(Oc2ccccc2)c1)c1ccc(OC(F)F)cc1 (some centres undefined)            inactive
20  CCOC(=O)CCN(SN(C)C(=O)Oc1cccc2c1OC(C)(C)C2)C(C)C     100 µM (active)
21                O=C(O)COc1cc(Cl)c(Cl)cc1Cl            inactive
22  C=CC(F)(C(F)(F)F)C(F)(F)C(F)(F)F (centres undefined)            inactive
23  CN(CCCC(O)c1cccnc1)N=O (centres undefined)            inactive
24                            CCOc1ccc(N)cc1            inactive
25                              CN(C)CCN(C)C            inactive
26                           CCCCS(=O)(=O)Cl            inactive
27    OC(c1ccc(Cl)cc1)(c1ccc(Cl)cc1)c1cccnc1    13.6 µM (active)
28                             ClCc1ccccc1Cl            inactive

----------
- Read-out: Matrix Metallopeptidase 1 (MMP1), MMP1 (gene 4312)
- procedure summary: BSK_MyoF_MMP1: BioMAP Diversity Plus: MyoF Assay for Matrix Metallopeptidase 1 (MMP1) Biomarker Activity (AID 2284268)
- experimental setup: primary human lung fibroblasts
Activity calls are given as the source filed them. How the source made its calls: active means hit-call score of the fitted dose curve at least 0.9, where 1 is the maximum; inactive means score below 0.9.
Possible outcomes: active, inactive

In [3]: df
Out[3]:
                                    molecule  category_label
 0  O=c1oc2ccccc2c(O)c1C(CC(O)c1ccc(-c2ccc(Br)cc2)cc1)c1ccccc1 (stereo unspecified)        inactive
 1                                 NC(=O)CCl        inactive
 2  CCOC(=O)C(SP(=S)(OC)OC)c1ccccc1 (stereo unspecified)        inactive
 3    COCC(=O)N(c1c(C)cccc1C)[C@H](C)C(=O)OC        inactive
 4     Cc1ccccc1OP(=O)(Oc1ccccc1C)Oc1ccccc1C        inactive
 5                O=C(O)COc1cc(Cl)c(Cl)cc1Cl        inactive
 6  Cc1cc(Cl)ccc1OC(C)C(=O)O (stereo unspecified)        inactive
 7           O=S(=O)(C(Cl)(Cl)Cl)C(Cl)(Cl)Cl          active
 8                            Cc1cc(Cl)ccc1N        inactive
 9  [Cl][Sn]([c]1ccccc1)([c]1ccccc1)[c]1ccccc1          active
10          C=CC(Cl)CCl (stereo unspecified)        inactive
11                      Oc1cccc(-c2ccccc2)c1          active
12                         CCOC(=O)CC(=O)CCl        inactive
13  CC(C)(C)c1cc([N+](=O)[O-])cc(C(C)(C)C)c1O        inactive
14   O=S(=O)(c1ccc(Cl)cc1)c1cc(Cl)c(Cl)cc1Cl          active
15  CC(C=O)Cc1ccc2c(c1)OCO2 (stereo unspecified)        inactive
16       CCOP(=O)(OCC)OC(=CCl)c1ccc(Cl)cc1Cl          active
17  CCC(C)(C#N)N=NC(C)(C#N)CC (stereo unspecified)        inactive
18                         CCCCCCCCCCCCN(C)C        inactive
19          CCOP(=S)(OCC)SCS(=O)(=O)C(C)(C)C        inactive
20  Cc1cccc(OP(=O)(Oc2cccc(C)c2)Oc2cccc(C)c2)c1        inactive
21                     O=C1C=CC(=O)c2ccccc21          active
22  CC(C)(COCC1CO1)COCC1CO1 (stereo unspecified)        inactive
23            c1ccc(-c2cccc(-c3ccccc3)c2)cc1          active
24         Cc1cc(C(C)(C)c2ccc(O)c(C)c2)ccc1O          active
25  OC(Cc1ccccc1Cl)(Cn1[nH]cnc1=S)C1(Cl)CC1 (stereo unspecified)        inactive
26       Cc1ccccc1OP(=O)(Oc1ccccc1)Oc1ccccc1          active
27                       Oc1c(Br)cc(Br)cc1Br          active
28                   Oc1ccc(Cc2ccc(O)cc2)cc1        inactive
29  OC(Cc1ccccc1Cl)(Cn1cncn1)C1(Cl)CC1 (stereo unspecified)        inactive
30                              Nc1ccc(N)cc1        inactive
